Cited source for all entries: PubChem BioAssay (NCI)

Test: NCI Yeast Anticancer Drug Screen. Data for the bub3 strain (AID 167)
Conditions: S. cerevisiae bub3 mutant strain, at 50.0 µM (retest, dose inferred, filed as 5.0), active compounds read high
Compounds without any hit were thinned out: in the full panel of roughly 79,000, 15% have a hit.
OBSERVATION_TYPE: growth inhibition (%)
Express your answer in %, writing the number without its unit.

// below: answered compounds
>  <COMPOUND>
S=P([S][Sn]([S]P(=S)(c1ccccc1)c1ccccc1)([c]1ccccc1)[c]1ccccc1)(c1ccccc1)c1ccccc1

>  <UNIT_ABBREV>
%

>  <growth inhibition>
69

$$$$
>  <COMPOUND>
O=[N+]([O-])c1ccccc1CC(c1c[nH]c2ccccc12)c1c[nH]c2ccccc12

>  <UNIT_ABBREV>
%

>  <growth inhibition>
80

$$$$
>  <COMPOUND>
O=C1NC(CSSCC2NC(=O)N(c3ccccc3)C2=O)C(=O)N1c1ccccc1 (centres undefined)

>  <UNIT_ABBREV>
%

>  <growth inhibition>
98

$$$$
>  <COMPOUND>
COc1ccccc1C(=O)[O][Sn]([c]1ccccc1)([c]1ccccc1)[c]1ccccc1

>  <UNIT_ABBREV>
%

>  <growth inhibition>
99

$$$$
>  <COMPOUND>
CCOC(=O)N1CCN(C(=S)N/N=C(\C)c2ncccn2)CC1

>  <UNIT_ABBREV>
%

>  <growth inhibition>
99

$$$$
>  <COMPOUND>
CN(C)c1ccc(/C=C(/NC(=O)c2ccccc2)c2nc3ccc(Cl)cc3[nH]2)cc1

>  <UNIT_ABBREV>
%

>  <growth inhibition>
-8

$$$$
>  <COMPOUND>
Cc1ccc(C(CN)(CCBr)c2ccc(C)cc2)cc1

>  <UNIT_ABBREV>
%

>  <growth inhibition>
91

$$$$
>  <COMPOUND>
CC1=CC(=O)C=C(Br)C1=O

>  <UNIT_ABBREV>
%

>  <growth inhibition>
99

$$$$

Any idea what its growth inhibition is? The compound is OCC(O)C(O)C(O)C(/C=N/Nc1ccccc1)=N\Nc1ccccc1 (centres undefined)
-89

Item `O=Nc1c(-c2c[nH]c3ccccc23)[nH]c2ccccc12` has what recorded growth inhibition?
84

Requested field: growth inhibition. Item: CC1/C=C/C=C/CC/C=C/C=C/C=C/C=C/C(OC2OC(C)C(O)C(N)C2O)CC2OC(CC(O)C(O)CCC(O)CC(O)CC(O)CC(=O)OC(C)C(C)C1O)CC(O)C2C(=O)O (centres undefined)
100

For Cc1c(N=Nc2ccc(Cl)cc2)c(-c2ccccc2)n(C2OC(CO)C(O)C(O)C2O)c(=S)c1C#N (centres undefined) , what is its reported growth inhibition?
95

Look at this compound and give its reported growth inhibition. `O=[N+]([O-])c1ccc(Cl)c(C(Nc2nncs2)Nc2nncs2)c1`
92

What value of measured growth inhibition is listed for `CCCCCCCCCCSCCO` ?
97

Quick one: growth inhibition for CSCS(=O)C[C@H](CO)NC(=O)/C=C/c1c(C)[nH]c(=O)[nH]c1=O (some centres undefined) ?
98

Name the recorded growth inhibition for N#CCC(=O)N/N=C(/CC1(O)C(=O)Nc2c(Cl)cc(Cl)cc21)c1ccccc1 (centres undefined) .
22

Please look up its growth inhibition: `CN(C)Cc1cc(C(C)(C)C)cc(C2CCCCC2)c1O`
40

Would you mind telling me what growth inhibition value was observed for `CCOc1ccc(N=Nc2ccccc2)cc1` ?
-39

Any idea what growth inhibition was measured for `O=C1C=C(O)c2cc(Br)ccc2C1=O.[Ag]` ?
99

Quick one: growth inhibition for CNC1=C2NC(=O)/C(C)=C\C=C\C(C)C(O)C(C)C(O)C(C)C(OC(C)=O)C(C)C(OC)/C=C/OC3(C)Oc4c(C)c(O)c(c(c4C3=O)C1=O)C2=O (centres undefined) ?
58

If you can, please state the reported growth inhibition value of `Cc1ccc(C(C)C)c(O)c1N/N=C/c1cc(Cl)ccc1O` .
48

// growth inhibition lookup, key: Nc1ccc(O)c2c1C(=O)c1ccccc1C2O (centres undefined)
96

For the compound shown here, `Nc1ccccc1-c1nc2c(ccc3ccccc32)[nH]1` , give the reported growth inhibition.
2

// growth inhibition lookup, key: CSCSCC(CO)NC(=O)/C=C/c1c(C)[nH]c(=O)[nH]c1=O (centres undefined)
21

---

Assay: NCI Yeast Anticancer Drug Screen. Data for the rad50 strain (AID 155);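 note: 0% = growth of vehicle-only cultures of the same strain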
Conditions: S. cerevisiae rad50 strain growth inhibition; at 5.0 µM (retest, dose inferred, filed as 0.5); active compounds read high
The panel holds about 79,000 compounds, 15% with a hit somewhere; the sample as a whole holds those more often.
OBSERVATION_TYPE: growth inhibition (%)
Just the number in %, nothing appended.

Can you share its growth inhibition? I mean this compound: Cc1cccc2c1Oc1ccccc1C2N1C(=O)/C(=C/c2ccccc2Cl)SC1=S (stereo not given)
99

What does the record list as growth inhibition for CC1=CC2N(C=C1)C(c1ccccc1)=NON2c1cc(C)ccn1 (stereo not given) ?
-20

Fill in the blank: the reported growth inhibition of `O=C(O)/C(=C/c1ccc(Cl)cc1)c1ccccc1` is ____.
-5

Give the measured growth inhibition of `CCCNC(=O)c1ccccc1` .
-1

---

Assay: NCI Yeast Anticancer Drug Screen. Data for the sgs1 mgt1 strain (AID 161);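 note: 0% = growth of cultures given vehicle only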
Conditions: S. cerevisiae sgs1 mgt1 strain, at 5.0 µM (retest, dose inferred, filed as 0.5), active compounds read high
About 79,000 compounds went through this panel and 15% of them were active in at least one assay; those are over-represented in the sample as a whole.
// reported growth inhibition per item
Reply with just the number (in %).

>  <COMPOUND>
CCCCC#CCCOC(=O)C#CCCCC

>  <UNIT_ABBREV>
%

>  <growth inhibition>
3

$$$$

Look up growth inhibition: `CCOC(=O)CNC(=O)CNC(=O)CNC(c1ccccc1)(c1ccccc1)c1ccccc1`
-13

What measured growth inhibition goes with `O=C1/C(=C\c2ccccc2)CCC/C1=C\O` ?
-50

Form field: reported growth inhibition of `CCCCCCCCCCCC#CCCCCC(=O)O`
93

Please give the measured growth inhibition for this compound: S=C(Nc1ccccc1)NC1CC2C=CC1CC2 (stereo not drawn)
-4

Param item = `c1ccc(OCC2c3ccccc3Nc3ccccc32)cc1` ; retrieve measured growth inhibition.
99

Fill blank: measured growth inhibition of the compound CCN(CC)CCCC(C)Nc1cc(C)nc2c1ccc1c2ccc2c(NC(C)CCCN(CC)CC)cc(C)nc21 (stereo not drawn) is ____.
-1

For `CCc1cccc(CC)c1NC(=O)C1=C(C)NC(C)=C(C(=O)Nc2c(CC)cccc2CC)C1c1ccc2c(c1)OCO2` , what is its reported growth inhibition?
45

Name the reported growth inhibition value associated with the compound `O=C(Nc1ccccc1-c1nn(CN2CCNCC2)c(=S)n(CN2CCNCC2)c1=O)C(F)(F)F`
-2

Any idea what its growth inhibition is? The compound is `COc1c2c(cc3c1c(=O)c1ccccc1n3C)OCO2`
-5

Which value of growth inhibition has been reported for `COC(=O)Cn1/c(=N\N=C(/C)c2ccc(C)cc2)sc2ccccc21` in the records?
-10

Request the reported growth inhibition associated with `Nc1nc(-c2ccccc2)c(N=Nc2c(Cl)cccc2Cl)s1`
9

Fill blank: measured growth inhibition of the compound CC(=O)Nc1ccc(C(=O)C(C)Br)cc1 (stereo not drawn) is ____.
43

Look up growth inhibition for this compound: `Nc1cc(Cl)c2c(c1)Cc1ccccc1-2`
7

Looking for the measured growth inhibition of `C#CCn1cnc2c(N)ncnc21` , can you help?
5

Sample CC1CN(C(=S)NNC(C)c2cc3ccccc3cn2)CC(C)O1 (stereo not drawn) — what was its growth inhibition?
26

Requested read-out: growth inhibition. Entry: `CC(C)(C)c1ccc(Sc2ncnc3ccccc23)cc1`
2

Report growth inhibition for `CCCCCCCCCCCC(=O)Oc1c(Cl)c(Cl)c(C#N)c(Cl)c1Cl` please.
5

For the compound `CCN(CC)CCCNc1cc(C)nc2c1ccc1c2ccc2c(NCCCN(CC)CC)cc(C)nc21` , what growth inhibition is on record?
-1

Quick one: growth inhibition for `CCCCCCC(/C=C/c1c(Cl)cccc1Cl)=N\O` ?
-6

Item `CSc1cccc(N2C(=O)C=CC2=O)c1` has what recorded growth inhibition?
100

Which growth inhibition value is on record for `O=C(CSc1nnc(Cc2ccccc2)o1)Nc1cccc(Cl)c1` ?
-2

May I ask what growth inhibition has been recorded for `COc1cc(-c2oc(C=Nc3ccccc3)c([N+](=O)[O-])c2-c2ccc(O)c(OC)c2)ccc1O` ?
-14

---

Assay: NCI Yeast Anticancer Drug Screen. Data for the sgs1 mgt1 strain (AID 161);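 note: 0% = growth of cultures given vehicle only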
Conditions: S. cerevisiae sgs1 mgt1 strain, at 50.0 µM, active compounds read high
Compounds without any hit were thinned out: in the full panel of roughly 79,000, 15% have a hit.
Reported growth inhibition values for the following compounds.
Quick note: give the figure in %, leave out the unit.

The examples below pair each entry with its known result.
>  <COMPOUND>
O=C(O)c1ccc(NC(c2ccccc2)c2ccc3cccnc3c2O)cc1 (stereo not drawn)

>  <growth inhibition, %>
97.8

$$$$
>  <COMPOUND>
Nc1c(-c2ccc(Cl)cc2)[n+]([O-])c2ccccc2[n+]1[O-]

>  <growth inhibition, %>
34.4

$$$$

Now look at this one.
Need growth inhibition of CN(Cc1ccccc1)CC(O)c1cc(-c2ccc(Cl)cc2)nc2ccccc12 (stereo not drawn) , thanks.
99.2
